- SYSTEM_TESTED: Melanocortin receptor 4 (Homo sapiens, UniProt P32245)
- Sequence (P32245 whole entry): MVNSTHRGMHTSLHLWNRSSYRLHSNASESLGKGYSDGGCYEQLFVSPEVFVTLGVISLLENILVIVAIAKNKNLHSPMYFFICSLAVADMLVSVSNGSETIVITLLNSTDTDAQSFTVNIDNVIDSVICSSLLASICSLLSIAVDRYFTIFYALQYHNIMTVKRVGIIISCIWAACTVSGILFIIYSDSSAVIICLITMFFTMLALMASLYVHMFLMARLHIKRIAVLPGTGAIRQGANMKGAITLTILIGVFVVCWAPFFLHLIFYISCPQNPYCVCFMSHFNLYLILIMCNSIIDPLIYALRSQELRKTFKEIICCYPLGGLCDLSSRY
- RUN_DESCRIPTION: Antagonist activity at human melanocortin 4 receptor expressed in CHOK1 cells assessed as inhibition of NDP-alpha-MSH-stimulated cAMP production
- Format: functional, cell-based
- TEST_SETTINGS: CHO-K1
Provide the reported Kb of each item.
Give the figure together with its unit, number first.

Example entries begin here.
{"SMILES_REPR": "CC(=O)c1ccc(Cc2nc3ccc(C(=O)N(CCC(C)C)CCC(C)C)cc3n2CCCN2CCCCC2)cc1", "Kb": "14 nM"}
{"SMILES_REPR": "CC(=O)c1ccc(Nc2nc3ccc(C(=O)N(CCC(C)C)CCC(C)C)cc3n2CCCN2CCCCC2)cc1", "Kb": "77 nM"}
{"SMILES_REPR": "COc1ccc(C(=O)c2nc3ccc(C(=O)N(CCC(C)C)CCC(C)C)cc3n2CCCN2CCCCC2)cc1", "Kb": "44 nM"}

Record request: Kb value, item CNC(=O)c1ccc(Nc2nc3ccc(C(=O)N(CCC(C)C)CCC(C)C)cc3n2CCCN2CCCCC2)cc1
3.2 nM

* * *

- RUN_DESCRIPTION: Ratio of drug level in brain to blood in Sprague-Dawley rat at 4.5 umol/kg, iv
- Type: ADME, tissue-based
- TEST_SETTINGS: read-out: Ratio AUC
MEASURED_METRIC: Kp
Give bare numbers.

Record request: Kp value, item CC(=O)c1ccc(Nc2nc3ccc(C(=O)N(CCC(C)C)CCC(C)C)cc3n2CCCN2CCCCC2)cc1
2.9

* * *

Provide the reported pKi of each item.
- SYSTEM_TESTED: Melanocortin receptor 4 (Homo sapiens)
- RUN_DESCRIPTION: Displacement of [125I]NDP-alphaMSH from human melanocortin 4 receptor expressed in CHOK1 cells
- Type: cell-based, CHO-K1
- TEST_SETTINGS: read-out: Ki
Answers are plain numbers, as −log10 of the molar value.

Example entries begin here.
{"SMILES_REPR": "CC(=O)c1ccc(Nc2nc3ccc(C(=O)N(CC(C)C)CC(C)C)cc3n2CCCN)cc1", "pKi": 6.11}
{"SMILES_REPR": "CC(=O)c1ccccc1Nc1nc2ccc(C(=O)N(CCC(C)C)CCC(C)C)cc2n1CCCN1CCCCC1", "pKi": 6.96}
{"SMILES_REPR": "CC(=O)c1ccc(Nc2nc3ccc(C(=O)N(CCC(C)C)CCC(C)C)cc3n2CCN)cc1", "pKi": 6.66}
{"SMILES_REPR": "CC(=O)c1ccc(-c2nc3ccc(C(=O)N(CCC(C)C)CCC(C)C)cc3n2CCCN2CCCCC2)cc1", "pKi": 7.70}

Report pKi for each item below.
1. CC(C)CCN(CCC(C)C)C(=O)c1ccc2nc(Nc3ccccc3)n(CCCN3CCCCC3)c2c1
2. CC(C)CCN(CCC(C)C)C(=O)c1ccc2nc(Nc3ccc(C(=O)c4ccccc4)cc3)n(CCCN3CCCCC3)c2c1
3. COc1ccc(C(=O)c2nc3ccc(C(=O)N(CCC(C)C)CCC(C)C)cc3n2CCCN2CCCCC2)cc1
4. COc1ccc(-c2nc3ccc(C(=O)N(CCC(C)C)CCC(C)C)cc3n2CCCN2CCCCC2)cc1
5. CC(=O)c1ccc(Nc2nc3ccc(C(=O)N(CCC(C)C)CCC(C)C)cc3n2CCCN)cc1
6. CC(C)CCN(CCC(C)C)C(=O)c1ccc2nc(Nc3cccnc3)n(CCCN3CCCCC3)c2c1

[8.14, 8.77, 9.02, 7.43, 7.22, 8.38]

Report pKi for each item below.
1. CCCCN(CCCC)C(=O)c1ccc2nc(Nc3cc(OC)c(OC)c(OC)c3)n(CCCN)c2c1
2. COc1ccc(Cc2nc3ccc(C(=O)N(CCC(C)C)CCC(C)C)cc3n2CCCN2CCCCC2)cc1
3. CC(C)CCN(CCC(C)C)C(=O)c1ccc2nc(-c3cc4ccccc4s3)n(CCCN3CCCCC3)c2c1
4. CCCCCN(CCCCC)C(=O)c1ccc2nc(Nc3cc(OC)c(OC)c(OC)c3)n(CCCN)c2c1

[6.00, 7.55, 8.54, 6.19]

* * *

Consider the following Ki values measured on Melanocortin receptor 3 (Homo sapiens, UniProt P41968).
Sequence (P41968 whole entry): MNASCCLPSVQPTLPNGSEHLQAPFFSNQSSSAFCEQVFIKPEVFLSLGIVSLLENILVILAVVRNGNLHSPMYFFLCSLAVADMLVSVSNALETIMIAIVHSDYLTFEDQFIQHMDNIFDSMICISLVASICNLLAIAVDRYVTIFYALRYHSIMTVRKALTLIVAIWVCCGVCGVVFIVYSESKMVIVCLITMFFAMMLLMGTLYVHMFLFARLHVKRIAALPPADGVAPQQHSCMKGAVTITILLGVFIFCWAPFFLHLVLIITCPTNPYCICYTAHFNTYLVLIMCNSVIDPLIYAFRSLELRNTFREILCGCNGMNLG
Answers are plain numbers, in nM.

{"SMILES_REPR": "COc1ccc(C(=O)c2nc3ccc(C(=O)N(CCC(C)C)CCC(C)C)cc3n2CCCN2CCCCC2)cc1", "UNIT_SPEC": "nM", "Ki": 540}
{"SMILES_REPR": "CNC(=O)c1ccc(Nc2nc3ccc(C(=O)N(CCC(C)C)CCC(C)C)cc3n2CCCN2CCCCC2)cc1", "UNIT_SPEC": "nM", "Ki": 130}
{"SMILES_REPR": "CC(=O)c1ccc(Nc2nc3ccc(C(=O)N(CCC(C)C)CCC(C)C)cc3n2CCCN2CCCCC2)cc1", "UNIT_SPEC": "nM", "Ki": 400}

Record request: Ki value, item CC(=O)c1ccc(Cc2nc3ccc(C(=O)N(CCC(C)C)CCC(C)C)cc3n2CCCN2CCCCC2)cc1
4500

* * *

- SYSTEM_TESTED: UniProt:P33032
- Sequence (P33032 whole entry): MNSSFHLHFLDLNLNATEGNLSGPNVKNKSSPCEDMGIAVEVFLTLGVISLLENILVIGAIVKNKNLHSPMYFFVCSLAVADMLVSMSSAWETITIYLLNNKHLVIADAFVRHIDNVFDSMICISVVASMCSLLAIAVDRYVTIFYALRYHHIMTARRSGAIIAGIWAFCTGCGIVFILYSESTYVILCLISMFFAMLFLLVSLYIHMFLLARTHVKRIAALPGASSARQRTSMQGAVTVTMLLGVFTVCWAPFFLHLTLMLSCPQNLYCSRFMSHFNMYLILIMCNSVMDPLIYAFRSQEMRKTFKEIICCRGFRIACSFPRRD
Provide the reported pKi of each item.
Answers are plain numbers, as −log10 of the molar value.

Example entries begin here.
{"SMILES_REPR": "COc1ccc(C(=O)c2nc3ccc(C(=O)N(CCC(C)C)CCC(C)C)cc3n2CCCN2CCCCC2)cc1", "pKi": 5.80}
{"SMILES_REPR": "CC(=O)c1ccc(Nc2nc3ccc(C(=O)N(CCC(C)C)CCC(C)C)cc3n2CCCN2CCCCC2)cc1", "pKi": 5.66}

Record request: pKi value, item CC(=O)c1ccc(Cc2nc3ccc(C(=O)N(CCC(C)C)CCC(C)C)cc3n2CCCN2CCCCC2)cc1
5.23

* * *

- SYSTEM_TESTED: Melanocortin receptor 4 (Homo sapiens)
- RUN_DESCRIPTION: Displacement of [125I]NDP-alphaMSH from human melanocortin 4 receptor expressed in CHOK1 cells
- Format: cell-based, CHO-K1
- TEST_SETTINGS: read-out: Ki
MEASURED_METRIC: log10 Ki (log10 of the value in nM)
Remember, log10 of Ki, in nM.

Example entries begin here.
{"SMILES_REPR": "CC(C)CCN(CCC(C)C)C(=O)c1ccc2nc(Nc3ccc(F)cc3)n(CCCN3CCCCC3)c2c1", "log10 Ki": 0.92}
{"SMILES_REPR": "CC(C)CCN(CCC(C)C)C(=O)c1ccc2nc(-c3c[nH]c4ccccc34)n(CCCN3CCCCC3)c2c1", "log10 Ki": 0.85}
{"SMILES_REPR": "CC(C)CCN(CCC(C)C)C(=O)c1ccc2nc(Nc3ccsc3)n(CCCN3CCCCC3)c2c1", "log10 Ki": 1.52}
{"SMILES_REPR": "CC(=O)c1ccc(Cc2nc3ccc(C(=O)N(CCC(C)C)CCC(C)C)cc3n2CCCN2CCCCC2)cc1", "log10 Ki": 0.59}
{"SMILES_REPR": "CC(C)CCN(CCC(C)C)C(=O)c1ccc2nc(Nc3ccc(Cl)cc3)n(CCCN3CCCCC3)c2c1", "log10 Ki": 0.94}

Report log10 Ki for each item below.
1. CC(=O)c1ccc(Nc2nc3ccc(C(=O)N(CCC(C)C)CCC(C)C)cc3n2CCCN2CCOCC2)cc1
2. CC(=O)c1ccc(Nc2nc3ccc(C(=O)N(CCC(C)C)CCC(C)C)cc3n2CCCN2CCCCC2)cc1

1.52
0.30

* * *

Provide the reported Ki of each item.
- SYSTEM_TESTED: Melanocortin receptor 4 (Homo sapiens, UniProt P32245)
- RUN_DESCRIPTION: Displacement of [125I]NDP-alphaMSH from human melanocortin 4 receptor expressed in CHOK1 cells
- Format: cell-based, CHO-K1
- TEST_SETTINGS: read-out: Ki
Give bare numbers, in nM.

{"SMILES_REPR": "CC(C)CCN(CCC(C)C)C(=O)c1ccc2nc(Nc3ccc(Br)cc3)n(CCCN3CCCCC3)c2c1", "SYSTEM_TESTED": "Melanocortin receptor 4 (Homo sapiens, UniProt P32245)", "Ki [nM]": 7.5}
{"SMILES_REPR": "COCCNc1nc2ccc(C(=O)N(CCC(C)C)CCC(C)C)cc2n1CCCN1CCCCC1", "SYSTEM_TESTED": "Melanocortin receptor 4 (Homo sapiens, UniProt P32245)", "Ki [nM]": 78}
{"SMILES_REPR": "COc1cc(Nc2nc3ccc(C(=O)N(CCC(C)C)CCC(C)C)cc3n2CCCN)cc(OC)c1OC", "SYSTEM_TESTED": "Melanocortin receptor 4 (Homo sapiens, UniProt P32245)", "Ki [nM]": 420}

API: the following record is the query input.
Reported Ki for Melanocortin receptor 4 (Homo sapiens, UniProt P32245), given CC(C)CCN(CCC(C)C)C(=O)c1ccc2nc(Nc3ccc(C(N)=O)cc3)n(CCCN3CCCCC3)c2c1 ?
6.5

Sourced from ChEMBL document CHEMBL1149565
